I'd appreciate it if you could supply normalized growth values for the items below.
# Protocol: chemical genetic growth profiling, strain panel (AID 1159580);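 note: tested at 20 µM; growth read once vehicle control cultures reached saturation at 30 °C; 1 = growth at the plate median or of vehicle wells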
# Condition Details: S. cerevisiae deletion strains, growth OD, locus YMR125W, strain sto1, stronger effect = lower value
Among all 5,500 compounds or so, about 2,000 (36%) were called active. Inconclusive results (about 18%) are left out. The list shows a part of the results.
Simply state the number, no unit and no words.

Annotate the compound CN1CCN(C(c2ccccc2)c2ccccc2)CC1 with its measured normalized growth.
0.95

Annotate the compound CCCCC(=O)N(Cc1ccc(-c2ccccc2-c2nn[nH]n2)cc1)[C@H](C(=O)O)C(C)C with its measured normalized growth.
0.932

Annotate the compound CCCC(=O)Nc1ncnc2c1ncn2C1O[C@@H]2COP(=O)(O)O[C@H]2[C@H]1OC(=O)CCC (stereo partly specified) with its measured normalized growth.
0.971

Annotate the compound CSCCC(NC=O)C(=O)NC(CC(C)C)C(=O)NC(Cc1ccccc1)C(=O)O (stereo unspecified) with its measured normalized growth.
0.993

Annotate the compound c1coc(CNc2ncnc3nc[nH]c23)c1 with its measured normalized growth.
0.974

Annotate the compound Nc1ncnc2nc[nH]c12 with its measured normalized growth.
0.978

Annotate the compound O=C(CCCN1CC=C(n2c(=O)[nH]c3ccccc32)CC1)c1ccc(F)cc1 with its measured normalized growth.
0.944

Annotate the compound C[N+]1(C)CCc2cc3c(cc2[C@H]1C1OC(=O)c2c1ccc1c2OCO1)OCO3 (stereo partly specified) with its measured normalized growth.
0.97

Annotate the compound CC1(C)C[C@@H]2C(=O)CC[C@H]3O[C@]3(C)CC[C@H]21 with its measured normalized growth.
1.01

Annotate the compound Cn1c(=O)[nH]c(=O)c2[nH]cnc21 with its measured normalized growth.
1.01

Annotate the compound COc1ccc(Cc2nccc3cc(OC)c(OC)cc23)cc1OC with its measured normalized growth.
0.994

====

# Protocol: chemical genetic growth profiling, strain panel (AID 1159580);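 note: tested at 20 µM; growth read once vehicle control cultures reached saturation at 30 °C; 1 = growth at the plate median or of vehicle wells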
# Condition Details: S. cerevisiae deletion strains, growth OD, locus YDR137W, strain rgp1
Screen size: about 5,500 compounds; about 2,000 (36%) were called active. Another 18% or so got no clear call; they are omitted. Rule as the data show it: active = normalized growth mostly below about 0.91 (no sharp cut-off); inconclusive = no clear call, values can overlap the other calls; inactive = mostly above about 0.92. This is one part of the list.
Write down the outcome that applies. Available outcomes: t = active, f = inactive

I'd appreciate the recorded outcome for O=c1[nH]c2ccccc2n1CCCN1CCC(n2c(=O)[nH]c3cc(Cl)ccc32)CC1 from this test.
f

I'd appreciate the recorded outcome for O=C(CCCN1CC=C(n2c(=O)[nH]c3ccccc32)CC1)c1ccc(F)cc1 from this test.
f

I'd appreciate the recorded outcome for O=C1OC(=O)C2C3CCC(O3)C12 (stereo not given) from this test.
f

I'd appreciate the recorded outcome for Cn1c(=O)[nH]c(=O)c2[nH]cnc21 from this test.
f

I'd appreciate the recorded outcome for OC[C@@H](O)C(O[C@@H]1O[C@H](CO)[C@H](O)[C@H](O)[C@H]1O)[C@H](O)[C@@H](O)CO (stereo not given in full) from this test.
f

I'd appreciate the recorded outcome for Cc1ncc([N+](=O)[O-])n1CCO from this test.
f

I'd appreciate the recorded outcome for Cn1c([N+](=O)[O-])cnc1COC(N)=O from this test.
f

I'd appreciate the recorded outcome for Cc1c(N(C)CS(=O)(=O)O)c(=O)n(-c2ccccc2)n1C from this test.
f

I'd appreciate the recorded outcome for O=c1[nH]c2ccccc2n1C1CCN(CCCC(c2ccc(F)cc2)c2ccc(F)cc2)CC1 from this test.
t

I'd appreciate the recorded outcome for CC(=O)O[C@@H]1CC2C(C)(C)[C@H](O)C[C@H](O)[C@]2(C)C2CC[C@@]3(C)C(=CC(=O)O[C@H]3c3ccoc3)[C@@]21C (stereo not given in full) from this test.
f

====

# Protocol: chemical genetic growth profiling, strain panel (AID 1159580);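 note: tested at 20 µM; growth read once vehicle control cultures reached saturation at 30 °C; 1 = growth at the plate median or of vehicle wells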
# Condition Details: S. cerevisiae deletion strains, growth OD, locus YNL175C, strain NOP13, stronger effect = lower value
In all, about 5,500 compounds went through this assay and about 2,000 (36%) were called active. About 18% were inconclusive and are not listed. This is one part of the list.
I'd appreciate it if you could supply normalized growth values for the items below.
Simply state the number, no unit and no words.

Annotate the molecule CCCCN1CCC(n2c(=O)[nH]c3ccccc32)CC1 with its measured normalized growth.
1.01

Annotate the molecule CN=C(N)NCCC[C@H](N)C(=O)O with its measured normalized growth.
1.01

Annotate the molecule O=c1[nH]c2ccccc2n1CCCN1CCN(C(c2ccccc2)c2ccccc2)CC1 with its measured normalized growth.
1.04

Annotate the molecule COc1ccc(Cc2nccc3cc(OC)c(OC)cc23)cc1OC with its measured normalized growth.
0.988

Annotate the molecule CC(N)=NCc1cccc(CN)c1 with its measured normalized growth.
1.02

Annotate the molecule O=C(OC1CCN(CCCl)CC1)C(c1ccccc1)c1ccccc1 with its measured normalized growth.
1.01

Annotate the molecule COc1cccc2c1[C@@H]1CN(CCCCn3c(=O)[nH]c4c(sc5ncc(-c6ccccc6)nc54)c3=O)C[C@@H]1CO2 with its measured normalized growth.
1.03

Annotate the molecule C[C@]12C=CC(=O)C=C1CC[C@H]1[C@@H]3C[C@@H](O)[C@](O)(C(=O)CO)[C@@]3(C)C[C@H](O)[C@@]12F with its measured normalized growth.
1

Annotate the molecule C[N+](C)(C)CC#CCN1CCCC1=O with its measured normalized growth.
0.996

Annotate the molecule NC(N)=Nc1ccc2[nH]c3c(c2c1)C[C@@]1(O)[C@H]2Cc4ccc(O)c5c4[C@@]1(CCN2CC1CC1)[C@H]3O5 with its measured normalized growth.
0.998

====

# Protocol: chemical genetic growth profiling, strain panel (AID 1159580);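 note: tested at 20 µM; growth read once vehicle control cultures reached saturation at 30 °C; 1 = growth at the plate median or of vehicle wells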
# Condition Details: S. cerevisiae deletion strains, growth OD, locus YBR021W, strain FUR4
Screen size: about 5,500 compounds; about 2,000 (36%) were called active. Not shown: some 18% with an inconclusive outcome. No stated cut-off is given here; in the data, active means normalized growth mostly below about 0.91 (no sharp cut-off); inconclusive means no clear call, values can overlap the other calls; inactive means mostly above about 0.92. The list shows a part of the results.
Write down the outcome that applies. Available outcomes: y (active), n (inactive)

I'd appreciate the recorded outcome for COP(=S)(OC)SCn1nnc2ccccc2c1=O from this test.
n

I'd appreciate the recorded outcome for CC(=O)Oc1ccc2c(c1)CCC1C2CC[C@@]2(C)C1CC[C@@H]2OC(C)=O (some centres undefined) from this test.
n

I'd appreciate the recorded outcome for CN(C)c1nc(N(C)C)nc(N(C)C)n1 from this test.
n

I'd appreciate the recorded outcome for C/C=C(\C)C(=O)OC1[C@@H]2C=C3C4CC(=O)O[C@@H](c5ccoc5)[C@]4(C)CCC3[C@@](C)(C2=O)[C@@H](C(O)C(=O)OC)C1(C)C (some centres undefined) from this test.
n

I'd appreciate the recorded outcome for COc1cc(O)c(C(=O)O)c(O)c1 from this test.
n

I'd appreciate the recorded outcome for CN1CCN(CCCN2c3ccccc3Sc3ccc(Cl)cc32)CC1 from this test.
y

I'd appreciate the recorded outcome for O=c1cc(-c2ccc(O)cc2)oc2cc(O[C@@H]3O[C@H](CO)[C@@H](O)[C@H](O)[C@H]3O[C@@H]3OC[C@](O)(CO)[C@H]3O)cc(O)c12 from this test.
n

I'd appreciate the recorded outcome for CCC(=O)O[C@H]1CCC2C3CCc4cc(O)ccc4C3CC[C@@]21C (some centres undefined) from this test.
n

I'd appreciate the recorded outcome for COc1c(O)cc(O)cc1O from this test.
n

I'd appreciate the recorded outcome for COc1cc2ccc(=O)oc2c2ccoc12 from this test.
n

I'd appreciate the recorded outcome for c1ccc2c(c1)[nH]c1cnccc12 from this test.
n

I'd appreciate the recorded outcome for O=C1c2ccc(O)c(O)c2C(=O)c2c(O)ccc(O)c21 from this test.
n

I'd appreciate the recorded outcome for CC(C(=O)O)c1ccc(N2Cc3ccccc3C2=O)cc1 (centres undefined) from this test.
n

I'd appreciate the recorded outcome for Cn1c(=O)[nH]c(=O)c2[nH]cnc21 from this test.
n

I'd appreciate the recorded outcome for CC1(C)C=Cc2c(cc3occ(-c4ccc5c(c4)OCO5)c(=O)c3c2O)O1 from this test.
n

I'd appreciate the recorded outcome for Cc1cc(C)nc(NS(=O)(=O)c2ccc(N)cc2)n1 from this test.
n

I'd appreciate the recorded outcome for COc1cc2c(cc1-c1coc3c4c(c(OC)cc3c1=O)OC(C)(C)C=C4)OCO2 from this test.
n

I'd appreciate the recorded outcome for CC(=O)OC1CCC2C3CCc4cc(O)ccc4C3CCC12C (centres undefined) from this test.
n

I'd appreciate the recorded outcome for Cc1cccc(N(C)C(=S)Oc2ccc3ccccc3c2)c1 from this test.
n

I'd appreciate the recorded outcome for Cc1c(N(C)CS(=O)(=O)O)c(=O)n(-c2ccccc2)n1C from this test.
n

I'd appreciate the recorded outcome for COc1cc(O)c(C)c(O)c1 from this test.
n

I'd appreciate the recorded outcome for COc1ccc2c(=O)c(-c3cc4c(cc3OC)OCO4)coc2c1 from this test.
n

I'd appreciate the recorded outcome for CCCCC(=O)N(Cc1ccc(-c2ccccc2-c2nn[nH]n2)cc1)[C@H](C(=O)O)C(C)C from this test.
n

I'd appreciate the recorded outcome for CN1Cc2c(N)cccc2C(c2ccccc2)C1 (centres undefined) from this test.
n

I'd appreciate the recorded outcome for Nc1ncnc2c1ncn2[C@@H]1O[C@H](CO)[C@@H](O)[C@@H]1O from this test.
n

I'd appreciate the recorded outcome for CCS(=O)(=O)CCn1c([N+](=O)[O-])cnc1C from this test.
n

I'd appreciate the recorded outcome for CN1CCN(C(c2ccccc2)c2ccccc2)CC1 from this test.
n

I'd appreciate the recorded outcome for COc1ccc(Cc2nccc3cc(OC)c(OC)cc23)cc1OC from this test.
n

I'd appreciate the recorded outcome for CCCc1nc(C(C)(C)O)c(C(=O)OCc2oc(=O)oc2C)n1Cc1ccc(-c2ccccc2-c2nn[nH]n2)cc1 from this test.
n

I'd appreciate the recorded outcome for CCCCC(=O)O[C@H]1CCC2C3CCc4cc(O)ccc4C3CC[C@@]21C (some centres undefined) from this test.
n

I'd appreciate the recorded outcome for N#C/C(=C\c1ccc(O)cc1)C(=O)O from this test.
n

I'd appreciate the recorded outcome for C[C@]12CCC3C(CC[C@H]4CC(=O)CC[C@]34C)C1CCC2=O (some centres undefined) from this test.
y

I'd appreciate the recorded outcome for CC1(C)C[C@@H]2C(=O)CC[C@H]3O[C@]3(C)CC[C@H]21 from this test.
n

I'd appreciate the recorded outcome for CC(C)CCCC(C)C1CCC2C3CCC4CC(=O)CCC4(C)C3CCC12C (centres undefined) from this test.
n

I'd appreciate the recorded outcome for CC(=O)OC1CCC23C(=O)OC45CCC(C6=CC(=O)OC6)C4(C)CCC2C5CCC3(O)C1 (centres undefined) from this test.
n

I'd appreciate the recorded outcome for C[C@]12CCC3C(CC[C@H]4C[C@@H](O)CC[C@]34C)C1CCC2=O (some centres undefined) from this test.
n

I'd appreciate the recorded outcome for COC(=O)C1=CO[C@@H](O[C@@H]2O[C@H](CO)[C@@H](O)[C@H](O)[C@H]2O)[C@@H]2[C@@H](C)[C@@H](O)C[C@H]12 from this test.
n

I'd appreciate the recorded outcome for CSCCC(NC=O)C(=O)NC(CC(C)C)C(=O)NC(Cc1ccccc1)C(=O)O (centres undefined) from this test.
n

I'd appreciate the recorded outcome for COc1c2c(cc3occ(-c4ccc5c(c4)OCO5)c(=O)c13)OC(C)(C)C=C2 from this test.
n

I'd appreciate the recorded outcome for O=c1n(CCCN2CCN(c3cccc(Cl)c3)CC2)nc2ccccn12 from this test.
n

I'd appreciate the recorded outcome for Cc1cc(O)c2c(c1O)C(=O)c1c(O)cc(C)c(O)c1C2=O from this test.
n

I'd appreciate the recorded outcome for COc1ccc2c(=O)c(CC(=O)O)coc2c1 from this test.
n

I'd appreciate the recorded outcome for CCN(CC)CCNC(=O)COc1ccc(OC)cc1 from this test.
n

I'd appreciate the recorded outcome for O=c1[nH]c2ccccc2n1C1CCN(CCCC(c2ccc(F)cc2)c2ccc(F)cc2)CC1 from this test.
n
